Study target: CD28 (Homo sapiens, UniProt P10747)
Procedure details: Jurkat/IL2 + CHO/OKT3 +/- PD-L1 reporter assay: PD-L1-dependent CD28 costimulation
Format: cell-based
Set-up: host or cells: Jurkat cells expressing an IL-2-luciferase reporter
Measurement setup: Table E24; Jurkat/IL2 + CHO/OKT3/PD-L1; 5.0 nM
Please mark 1 if the recorded Fold Increase over WT CD80-IgV-Fe is equal to or greater than 5, and -1 if it falls below.

{"Molecule": "H18V/A26D/E35D/M47V/V68M/A71G/D90G (protein, UniProt P33681 35-288, looked up, variant H18V A26D E35D M47V V68M A71G D90G, Fc fusion) T-lymphocyte activation …: VIHVTKEVKEVATLSCGVNVSVEELDQTRIYWQKDKKMVLTMMSGDVNIWPEYKNRTIFDITNNLSIMILGLRPSDEGTYECVVLKYEKGAFKREHLAEVTLSVKADFPTPSISDFEIPTSNIRRIICSTSGGFPEPHLSWLENGEELNAINTTVSQDPETELYAVSSKLDFNMTTNHSFMCLIKYGHLRVNQTFNWNTTKQEHFPDNLLPSWAITLISVNGIFVICCLTYCFAPRCRERRRNERLRRESVRPV", "Category": -1}
{"Molecule": "H18T/A26N/E35D/M47L/V68M/A71G (protein, UniProt P33681 35-288, looked up, variant H18T A26N E35D M47L V68M A71G, Fc fusion) T-lymphocyte activation …: VIHVTKEVKEVATLSCGTNVSVEELNQTRIYWQKDKKMVLTMMSGDLNIWPEYKNRTIFDITNNLSIMILGLRPSDEGTYECVVLKYEKDAFKREHLAEVTLSVKADFPTPSISDFEIPTSNIRRIICSTSGGFPEPHLSWLENGEELNAINTTVSQDPETELYAVSSKLDFNMTTNHSFMCLIKYGHLRVNQTFNWNTTKQEHFPDNLLPSWAITLISVNGIFVICCLTYCFAPRCRERRRNERLRRESVRPV", "Category": 1}
{"Molecule": "H18V/A26P/E35D/M47L/V68M/A71G (protein, UniProt P33681 35-288, looked up, variant H18V A26P E35D M47L V68M A71G) T-lymphocyte activation …: VIHVTKEVKEVATLSCGVNVSVEELPQTRIYWQKDKKMVLTMMSGDLNIWPEYKNRTIFDITNNLSIMILGLRPSDEGTYECVVLKYEKDAFKREHLAEVTLSVKADFPTPSISDFEIPTSNIRRIICSTSGGFPEPHLSWLENGEELNAINTTVSQDPETELYAVSSKLDFNMTTNHSFMCLIKYGHLRVNQTFNWNTTKQEHFPDNLLPSWAITLISVNGIFVICCLTYCFAPRCRERRRNERLRRESVRPV", "Category": -1}
{"Molecule": "H181/A26P/E35D/M47V/V68M/A71G (protein) VIHVTKEVKEVATLSCGINVSVEELPQTRIYWQKDKKMVLTMMSGDVNIWPEYKNRTIFDITNNLSIMILGLRPSDEGTYECVVLKYEKDAFKREHLAEVTLSVKAD", "Category": 1}
{"Molecule": "H18Y/A26P/E35D/M47T/V68M/A71G (protein) VIHVTKEVKEVATLSCGYNVSVEELPQTRIYWQKDKKMVLTMMSGDINIWPEYKNRTIFDITNNLSIMILGLRPSDEGTYECVVLKYEKDAFKREHLAEVTLSVKAD", "Category": -1}
{"Molecule": "H18L/A26N/D46E/V68M/A71G/D90G (protein, UniProt P33681 35-288, looked up, variant H18L A26N D46E V68M A71G D90G) T-lymphocyte activation …: VIHVTKEVKEVATLSCGLNVSVEELNQTRIYWQKEKKMVLTMMSGEMNIWPEYKNRTIFDITNNLSIMILGLRPSDEGTYECVVLKYEKGAFKREHLAEVTLSVKADFPTPSISDFEIPTSNIRRIICSTSGGFPEPHLSWLENGEELNAINTTVSQDPETELYAVSSKLDFNMTTNHSFMCLIKYGHLRVNQTFNWNTTKQEHFPDNLLPSWAITLISVNGIFVICCLTYCFAPRCRERRRNERLRRESVRPV", "Category": -1}
{"Molecule": "H18C/A26P/E35D/M47L/V68M/A71G (protein, UniProt P33681 35-288, looked up, variant H18C A26P E35D M47L V68M A71G) T-lymphocyte activation …: VIHVTKEVKEVATLSCGCNVSVEELPQTRIYWQKDKKMVLTMMSGDLNIWPEYKNRTIFDITNNLSIMILGLRPSDEGTYECVVLKYEKDAFKREHLAEVTLSVKADFPTPSISDFEIPTSNIRRIICSTSGGFPEPHLSWLENGEELNAINTTVSQDPETELYAVSSKLDFNMTTNHSFMCLIKYGHLRVNQTFNWNTTKQEHFPDNLLPSWAITLISVNGIFVICCLTYCFAPRCRERRRNERLRRESVRPV", "Category": 1}
